pKd values for the binders below.
# SYSTEM_TESTED: T1, DFNB31_3, Q9P202
# T1 sequence (Q9P202 811-907, limits assumed, looked up): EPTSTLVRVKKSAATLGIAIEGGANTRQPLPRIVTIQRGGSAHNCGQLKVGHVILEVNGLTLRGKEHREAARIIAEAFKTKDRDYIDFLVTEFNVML
# ASSAY_PROTOCOL: holdup assay
# Set-up: key: below the threshold = too weak to quantify, mostly under pKd 3.1 to 4
# CONDITION_NOTES: plain residues with an end cap or a label only (N-terminal biotin on a linker: ado-ado)
Number only, no unit.

BINDER | pKd
RFQQRMQTHV [KIRREL1, Q96J84] | 3.62

Please examine the following record next.
### Prompt Param item = RQKEVRESKC [SCN8A, Q9UQD0] ; retrieve measured pKd.
### Response 3.95
